Below, each entry is listed with its recorded CRF1R EC50.
target: corticotropin releasing factor 1 receptor; assay: cell-based or functional assay
Ends that are not written are not given here.
Unit nM implied. Number only.

Example entries and their recorded answers appear below.
> print(dat)
                                     binder  reported.metric  recorded.result
1  NDDPPISIDLPLFLLRNMIEMARIENEREQAGLNAKYLAEV-NH2 [SEQ ID NO 257]       CRF1R EC50              744
2  ZGPPISIDLPYWLLRKMIEIEKQEKEKQQAANNRLLLDTI (C-terminal amide) [SEQ ID NO 215]       CRF1R EC50              188
3  ZGPPISIDLPIILLRKVIEIEKQEKEKQQAANNARLLARI (C-terminal amide) [SEQ ID NO 295]       CRF1R EC50             1000

Req: State, in one line, measured CRF1R EC50 of PSLSIDLPLILLRTLLELEKTQSQRERAEQNARIFARV-NH2 [SEQ ID NO 332]
Resp: 1000

Req: Provide only the value of recorded CRF1R EC50 for ZGPPISIDLPFFLLRKMIEIEKQEKEKQQAANNALLLATI (C-terminal amide) [SEQ ID NO 319]
Resp: 106

Req: Annotate the binder IVLSLDVVIGLLQILLEQARARAAREQATTNARILARV-NH2 [SEQ ID NO 214] with its measured CRF1R EC50.
Resp: 100
